Target: T1, human folate receptor alpha (hFRα), recombinant protein (human, UniProt P15328 25-233)
T1 construct: Bought recombinant proteins (His-tagged, or biotinylated via Avi-tag, e.g. AcroBiosystems FO1-H82E2, F01-H52H1); also called hFOLR1; huFOLR1
T1 sequence (P15328 25-233 limits assumed): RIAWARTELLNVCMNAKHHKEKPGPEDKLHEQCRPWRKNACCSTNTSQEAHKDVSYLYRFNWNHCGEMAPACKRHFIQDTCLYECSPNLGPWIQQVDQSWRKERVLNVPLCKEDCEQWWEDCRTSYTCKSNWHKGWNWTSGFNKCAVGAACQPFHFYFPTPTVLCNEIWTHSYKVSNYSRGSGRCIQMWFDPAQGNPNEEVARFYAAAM
Assay: ELISA, periplasmic extract
Description: From the lymphocytes of each llama a separate VHH library was constructed to select and screen for the presence of antigen-specific VHHs. […] After panning of core76/77 on human and mouse folate receptor alpha ^{∘}FRα), 95 colonies were randomly selected from the second and third rounds and analyzed by ELISA on both human and mouse FRα for the presence of FRα-specific VHHs in their periplasmic extracts ^{∘}PE). […] The off-rates were calculated using a 1:1 binding model. […]
QUANTITY NAME: PE-ELISA (ratio to uncoated well)

Solved entries:
[
  {
    "BINDER": "VHH 3MFR60 (family 10) (VHH) VHH: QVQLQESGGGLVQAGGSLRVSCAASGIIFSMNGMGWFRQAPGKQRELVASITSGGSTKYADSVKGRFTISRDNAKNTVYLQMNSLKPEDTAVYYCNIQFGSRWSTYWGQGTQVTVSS",
    "PE-ELISA (ratio to uncoated well)": 4.8
  },
  {
    "BINDER": "VHH 2HFO42 (family 3) (VHH, also called 2HF042; Nb42) VHH: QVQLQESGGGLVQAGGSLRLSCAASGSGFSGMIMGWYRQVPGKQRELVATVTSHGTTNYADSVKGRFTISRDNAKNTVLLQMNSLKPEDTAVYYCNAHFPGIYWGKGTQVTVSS",
    "PE-ELISA (ratio to uncoated well)": 11.7
  },
  {
    "BINDER": "VHH 2HFO19 (family 1) (VHH, also called Nb19) VHH: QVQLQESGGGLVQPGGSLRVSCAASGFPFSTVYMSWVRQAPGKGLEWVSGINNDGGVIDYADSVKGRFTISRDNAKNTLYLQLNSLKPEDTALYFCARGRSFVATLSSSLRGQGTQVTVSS",
    "PE-ELISA (ratio to uncoated well)": 13.8
  }
]

1. VHH 2MFR7 (family 1) (VHH, also called 2MFRO7) VHH: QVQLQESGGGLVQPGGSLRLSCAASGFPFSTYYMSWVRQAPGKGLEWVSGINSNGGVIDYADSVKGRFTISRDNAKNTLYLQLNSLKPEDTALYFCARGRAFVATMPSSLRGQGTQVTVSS
2. VHH 3HFO26 (family 1) (VHH) VHH: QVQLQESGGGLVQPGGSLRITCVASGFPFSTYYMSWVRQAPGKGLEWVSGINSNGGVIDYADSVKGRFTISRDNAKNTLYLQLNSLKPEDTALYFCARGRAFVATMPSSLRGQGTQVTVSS
Please state the entry with greater PE-ELISA (ratio to uncoated well) among 1 and 2 . // respond with label for picked entry
1
(1: 12.4, 2: 4.8)

All figures here come from patent US20250304677A1.
